// provenance: PubChem BioAssay (NCATS)

- system: Retinaldehyde dehydrogenase 3 (Homo sapiens) (UniProt P47895)
- measurement_protocol: qHTS for Inhibitors of the Aldehyde Dehydrogenase Family (ALDH1A3) Primary screen (AID 2061315)
- experimental_context: ALDH inhibition qHTS; series mostly up to 56 µM
Records with an inconclusive call do not appear. Activity calls are given as the source filed them. Calls come from the whole dose curve; as a rule, active = well fitted inhibition curve with a large enough effect; inconclusive = small, poorly fitted or top-dose-only effect; inactive = no such curve, though single readings can be large or run the other way.
measured_attribute: activity change, negative = inhibition

compound: COC(=O)c1ccccc1NC(=O)c1ccc(C#N)cc1
measured_value: inactive
--
compound: CC(=O)Nc1sc2c(c1-c1nc3ccccc3s1)CCN(C(C)C)C2
measured_value: inactive
--
compound: O=C(O)c1ccc(S(=O)(=O)N[C@@H](Cc2ccc(O)cc2)C(=O)O)cc1
measured_value: inactive
--
compound: C[C@@H]1CC[C@]2(C(=O)O)CC[C@]3(C)C(=CCC4[C@@]5(C)C[C@@H](O)[C@H](O)[C@@](C)(CO)C5CC[C@]43C)C2[C@H]1C (stereo not given in full)
measured_value: inactive
--
compound: Cc1cccc(CNc2nc(-c3ccccc3C(F)(F)F)nc3ccccc23)c1
measured_value: inactive
